Kindly state GI50 for each of the entries shown.
System: DU-145 prostate
Assay: NCI tumour cell line growth inhibition, 48 h

Consider the reported GI50 for these molecules:
{"columns": ["smiles_record", "GI50"],
 "data": [
  ["COc1cc2c(cc1OCCCN1CCN(CCCOc3cc4c(cc3OC)C(=O)N3CC(F)(F)C[C@H]3C=N4)CC1)N=C[C@@H]1CC(F)(F)CN1C2=O", "3.63 µM"],
  ["Cc1cccc(NC2=C(Cl)C(=O)c3nc(C)ccc3C2=O)c1", "1.27 µM"]
]}

Let's switch to this molecule now.
Record COc1ccc(-c2cc(=O)oc3c4c(ccc23)OCN(Cc2ccc(F)cc2)C4)cc1 / DU-145 prostate, GI50 recorded as 24.3 µM

###

Kindly state TGI for each of the entries shown.
System: HL-60(TB) leukemia
Assay: NCI tumour cell line growth inhibition, 48 h

Consider the reported TGI for these compounds:
{"columns": ["smiles_record", "system_tested", "TGI"],
 "data": [
  ["COc1cc(C[P+](c2ccccc2)(c2ccccc2)c2ccccc2)cc(OC)c1OC", "HL-60(TB) leukemia", "> 100 µM"],
  ["C/C(=N\\NC(N)=O)c1sc(-c2nc(C)c(/C(C)=N/NC(N)=O)s2)nc1C", "HL-60(TB) leukemia", "> 100 µM"]
]}

Let's switch to this compound now.
Quick note, TGI for O=C(O)c1ccc(CNCc2ccccc2)cc1 landed at > 100 µM

###

Kindly state TGI for each of the entries shown.
Tested on: SNB-75 CNS
Assay: NCI tumour cell line growth inhibition, 48 h

Consider the reported TGI for these compounds:
{"columns": ["compound", "metric", "result"],
 "data": [
  ["CCCCCCCCc1cc2c(O)c(c1)Cc1cc(CCCCCCCC)cc(c1O)Cc1cc(CCCCCCCC)cc(c1O)Cc1cc(CCCCCCCC)cc(c1O)Cc1cc(CCCCCCCC)cc(c1O)Cc1cc(CCCCCCCC)cc(c1O)C2", "TGI", "> 100 µM"],
  ["OC(C#CCN1CCCC1)(c1ccccc1)c1ccccc1Cl (configuration not stated)", "TGI", "> 100 µM"]
]}

Each compound below has a reported value. Please supply its TGI.
1. CNc1[nH]c(=S)nc2sc3c(c12)CCCC3
2. CCOC(=O)C(NC(=O)CC)(N1CCN(c2cc3c(cc2F)c(=O)c(C(=O)O)cn3C2CC2)CC1)C(F)(F)F (configuration not stated)
3. Cc1ccc(/C=C2/N=C(N/N=C\C(O)C(O)C(O)C(O)CO)NC2=O)cc1 (configuration not stated)

Response:
["> 75 µM", "> 100 µM", "> 100 µM"]

Each compound below has a reported value. Please supply its TGI.
1. C=CC1(C)CC(=O)C2(O)C(C)(O1)C(OC(C)=O)C(O)C1C(C)(C)CCC(O)C12C (configuration not stated)
2. O=C1NC(O)CCN1C1OC(CO)C(O)C1O (configuration not stated)

Response:
1. > 150 µM
2. > 250 µM

Each compound below has a reported value. Please supply its TGI.
1. Nc1nc(Cl)nc2c1ncn2C1CC(O)C(CO)O1 (configuration not stated)
2. FC(F)(F)c1ccc2nc(NCc3ccccc3)c(-c3ccccc3)nc2c1
3. C=C(C)[C@H]1C2=CC(C(=O)OC)=C(C[C@H](C(=C)C)[C@@H](O)[C@@H](O)C3=C[C@H]1OC3=O)O2
4. Clc1sc(Cl)c2c1[C@@H](Cl)C[C@@H]2Br
5. Cc1cc(C[C@H]2O[C@@H]3OC(C)(C)O[C@@H]3[C@H]3OC(C)(C)O[C@H]32)c2ccccc2n1
6. CC1OC(O[C@H]2C3C=CO[C@@H](OC4OC(CO)C(O)C(O)C4O)C3[C@@]3(COC(=O)/C=C/c4ccccc4)O[C@@H]23)C(O)C(O)C1O (some centres not stated)
7. O=C(NN1C(=O)CS(=O)(=O)C1c1ccc(C(F)(F)F)cc1)c1ccncc1 (configuration not stated)
8. OCCCc1ccc2c(c1)[C@H](CO)[C@@H](c1ccc(O)cc1)O2

Response:
> 91.9 µM
> 100 µM
> 100 µM
> 100 µM
> 100 µM
> 100 µM
> 100 µM
> 100 µM

Each compound below has a reported value. Please supply its TGI.
1. CCN(C(=O)N[C@@H](C)C(=O)N[C@@H](Cc1ccccc1)C(=O)OC)c1ccccc1
2. CCCCCCCCCCCC[N+]12CC[N+](CCN)(CC1)CC2

Response:
> 100 µM
> 100 µM
